- SUBJECT_OF_TEST: Carbonic anhydrase 12 (Homo sapiens)
- Sequence (O43570 whole entry): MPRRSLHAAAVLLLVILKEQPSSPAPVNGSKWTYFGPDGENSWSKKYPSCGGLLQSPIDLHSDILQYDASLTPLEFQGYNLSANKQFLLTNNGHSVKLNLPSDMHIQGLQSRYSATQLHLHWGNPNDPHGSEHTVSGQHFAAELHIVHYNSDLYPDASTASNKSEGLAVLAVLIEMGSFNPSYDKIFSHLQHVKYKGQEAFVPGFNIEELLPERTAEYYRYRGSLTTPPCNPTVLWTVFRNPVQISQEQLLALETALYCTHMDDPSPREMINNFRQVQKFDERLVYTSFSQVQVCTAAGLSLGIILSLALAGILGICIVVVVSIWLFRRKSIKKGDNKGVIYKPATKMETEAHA
- PROCEDURE_DETAILS: Inhibition of human carbonic anhydrase-12
MEASURED_ENDPOINT: pKi
pKi field: float, defined as -log10 of concentration (mol/L).

> print(dat)
                                smiles.text  recorded.result
1  COc1ccc(NC(=O)Nc2ccc(NS(N)(=O)=O)cc2)c(C)c1             7.47
2      NS(=O)(=O)Nc1ccc(NC(=O)NC2CCCCC2)cc1             6.97
3  NS(=O)(=O)Nc1ccc(NC(=O)Nc2ccc(Cl)cc2)cc1             7.57
4  Cc1cc(Cl)ccc1NC(=O)Nc1ccc(NS(N)(=O)=O)cc1             7.77
5  NS(=O)(=O)Oc1ccc(NC(=O)NC23CC4CC(CC(C4)C2)C3)cc1             7.37

Given the entry NS(=O)(=O)Nc1ccc(NC(=O)Nc2ccccc2-c2ccccc2)cc1 , report its measured pKi.
6.67

The measurements presented in this section are drawn from BindingDB's records for doi:10.1016/j.bmc.2012.11.004.
